Assignment: determine reported kon for the given binders.
# Target Desc: SARS-CoV-2 S2 protein (SARS-CoV-2, UniProt P0DTC2 686-1213)
Note: unit M⁻¹ s⁻¹ is implicit; provide only the numeric part.

For AB-009283 (antibody, V domains shown) VH: EVQLVESGGGLIQPGGSLRLSCAASGFTVSSNYMSWVRQAPGKGLEWVSVIYSGGSTYYADSVKGRFTISRDNSKNTLYLQMNSLRAEDTAVYYCATSSFDYYYYFMDVWGKGTTVTVSS VL: SYELTQPPSVSVSPGQTASITCSGDKLGDKYACWYHQKPGQSPVLVIYQDTKRPSGIPERFSASNSGNTATLTISGTQALDEADYYCQAWDSSIVVFGGGTKLTVL , write its kon.
14100

Note kon for the binder shown: AB-009273 (antibody, V domains shown) VH: QVQLVQSGAEVKKPGSSVKVSCKASGGTFSSYAISWVRQAPGQGLEWMGGIIPIFGTANYAQKFQGRVTITTDESTSTAYMELSSLRSEDTAVYYCARVGVYDSSGYYFDYWGQGTLVTVSS VL: EIVLTQSPATLSLSPGERATLSCRASQSVSSYLAWYQQKPGQAPRLLIYDASNRATGIPARFSGSGSGTDFTLTISSLEPEDFAVYYCQQRSNWPPRLTFGGGTKVEIK
21500

Report kon for AB-009710 (antibody, V domains shown) VH: LVQLIQSGAEVVKPGSSVKVSCTASGGSYSSYTLSWVRQAPGQGVEWLGRISPVLNTTYYAQKLEGRVTMTADESTSTVYMQLSSLRSEDTAVYYCARLASMNGVDIWGQGTSVTVSS VL: EIVLTQSPGTLSLSPGERATLSCRASQSVYGSYLAWYQQKPGQAPRLLIYGGSSRATGIPDRFSGSGSGTDFTLTISRLEPEDFAVYYCHQYGTSRYSFGQGTKLDIK
12600

Answer with reported kon of AB-009676 (antibody, V domains shown) VH: QVQLQQWGAGLLKPSETLSLTCAVYGGSFSGYYWSWIRQPPGKGLEWIGEINHSGSTNYNPSLKSRVTISVDTSKNQFSLKLSSVTAADTAVYYCARLSRQWLVRPHIYYFDYWGQGTLVTVSS VL: DIQMTQSPSTLSASVGDRVTITCRASQSVSSYLNWYQQKPGKAPKLLIYAASSLQSGVPSRFSGSGSGTDFTLTISSLQPEDFATYFCQQSYSTPRTFGQGTKLEIK
6840
